Taken from ChEMBL document CHEMBL1124125.

- assay.text: Lethal dose when given intraperitoneally in mice
- Assay type: toxicity, organism-based
- conditions: mouse, in vivo, ip
parameter: LD50 (mg/kg)
Numbers only, in mg/kg.

Solved entries:
1) Cc1ccc(-c2nnc3c4ccccc4c(N4CCCC4)nn23)cc1C ... 300
2) c1ccc(CNc2nn3c(-c4ccccc4)nnc3c3ccccc23)cc1 ... 400
3) CCN(CC)c1nn2c(-c3ccccc3)nnc2c2ccccc12 ... 600
4) CCOc1cc(OCC)c(-c2nnc3c4ccccc4c(N4CCCC4)nn23)cc1OCC ... 300
5) CC(C)(C)Nc1nn2c(-c3ccccc3)nnc2c2ccccc12 ... 300
6) CC(=O)Nc1ccc(-c2nnc3c4ccccc4c(N4CCCC4)nn23)cc1 ... 600
7) CN(C)c1nn2c(-c3ccccc3)nnc2c2ccccc12 ... 400
8) CN(C)c1ccc(-c2nnc3c4ccccc4c(N4CCCC4)nn23)cc1 ... 300

Look up LD50 for the entries below, preserving their order.
1. COCCN(CCOC)c1nn2c(-c3ccc(O)cc3)nnc2c2ccccc12
2. COCCN(CCOC)c1nn2c(-c3cccc(Cl)c3)nnc2c2ccccc12
3. COCCN(CCOC)c1nn2c(-c3ccccc3)nnc2c2ccccc12
4. NC(=O)c1ccc(-c2nnc3c4ccccc4c(N4CCCC4)nn23)cc1
5. COCCN(CCOC)c1nn2c(-c3ccc(F)cc3)nnc2c2ccccc12
6. O=[N+]([O-])c1cc(-c2nnc3c4ccccc4c(N4CCCC4)nn23)ccc1Cl

Result:
1: 600; 2: 600; 3: 200; 4: 200; 5: 600; 6: 200
